Biological target: PI3K (p110δ/p85α) (h) (Homo sapiens (Human))
Sequence (O00329 whole entry): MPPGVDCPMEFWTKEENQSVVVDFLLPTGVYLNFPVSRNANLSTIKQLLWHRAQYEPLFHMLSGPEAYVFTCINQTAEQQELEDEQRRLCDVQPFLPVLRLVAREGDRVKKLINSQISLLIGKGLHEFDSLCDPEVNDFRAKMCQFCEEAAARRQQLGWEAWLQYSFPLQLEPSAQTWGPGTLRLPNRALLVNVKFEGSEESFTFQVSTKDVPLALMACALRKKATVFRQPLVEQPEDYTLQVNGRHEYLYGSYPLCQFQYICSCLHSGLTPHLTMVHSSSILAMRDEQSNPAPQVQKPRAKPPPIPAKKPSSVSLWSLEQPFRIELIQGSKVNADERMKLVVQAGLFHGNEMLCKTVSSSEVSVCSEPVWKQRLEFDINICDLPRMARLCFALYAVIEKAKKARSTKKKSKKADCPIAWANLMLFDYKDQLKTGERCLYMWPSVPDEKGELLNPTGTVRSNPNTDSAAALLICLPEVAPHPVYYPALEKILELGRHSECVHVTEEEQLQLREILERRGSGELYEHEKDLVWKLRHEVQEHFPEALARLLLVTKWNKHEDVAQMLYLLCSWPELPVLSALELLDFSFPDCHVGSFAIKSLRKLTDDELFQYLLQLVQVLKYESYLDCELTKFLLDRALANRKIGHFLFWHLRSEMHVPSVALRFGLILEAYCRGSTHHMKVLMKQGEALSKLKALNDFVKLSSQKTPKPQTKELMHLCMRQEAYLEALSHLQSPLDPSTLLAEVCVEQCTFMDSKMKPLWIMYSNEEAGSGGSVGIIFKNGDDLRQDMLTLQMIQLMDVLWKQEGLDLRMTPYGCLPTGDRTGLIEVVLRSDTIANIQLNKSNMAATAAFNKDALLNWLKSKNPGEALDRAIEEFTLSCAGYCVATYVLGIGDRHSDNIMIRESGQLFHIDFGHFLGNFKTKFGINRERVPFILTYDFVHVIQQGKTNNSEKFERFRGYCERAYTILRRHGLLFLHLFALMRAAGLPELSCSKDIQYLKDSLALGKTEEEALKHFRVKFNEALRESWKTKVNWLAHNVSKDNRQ
Sequence (P27986 whole entry partner): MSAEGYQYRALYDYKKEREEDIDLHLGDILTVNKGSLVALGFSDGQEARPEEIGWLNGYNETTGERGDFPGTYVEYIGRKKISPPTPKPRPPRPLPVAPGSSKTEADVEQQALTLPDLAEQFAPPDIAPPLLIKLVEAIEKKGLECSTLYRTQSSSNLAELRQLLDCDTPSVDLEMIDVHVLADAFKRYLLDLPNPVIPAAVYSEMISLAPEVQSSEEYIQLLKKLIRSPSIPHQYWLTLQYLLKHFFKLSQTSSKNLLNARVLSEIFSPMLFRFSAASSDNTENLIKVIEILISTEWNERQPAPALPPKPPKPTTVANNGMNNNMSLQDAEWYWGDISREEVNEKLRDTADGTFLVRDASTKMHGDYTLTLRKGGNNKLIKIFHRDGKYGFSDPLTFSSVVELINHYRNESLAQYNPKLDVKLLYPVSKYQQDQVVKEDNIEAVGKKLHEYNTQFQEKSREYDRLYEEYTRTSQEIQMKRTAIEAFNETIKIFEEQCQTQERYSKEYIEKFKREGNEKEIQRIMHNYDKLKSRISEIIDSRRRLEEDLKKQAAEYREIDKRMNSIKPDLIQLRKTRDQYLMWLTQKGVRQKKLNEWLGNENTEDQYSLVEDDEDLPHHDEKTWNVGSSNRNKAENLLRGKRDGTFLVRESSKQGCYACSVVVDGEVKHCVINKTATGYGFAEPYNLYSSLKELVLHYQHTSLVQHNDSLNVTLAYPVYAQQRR
Experiment: PI3K (p110δ/p85α) (h) non-radioactive HTRF kinase assay
Here the recorded IC50 is given for each entry.
Answer in nM, number only, no unit symbol.

Cc1noc(-c2c(N)ncnc2N[C@@H](C)c2nc3cccc(Cl)c3c(=O)n2-c2ccccc2)n1 | 2
CC[C@H](Nc1ncnc(N)c1-c1ncnn1C)c1nc2cccc(Cl)c2c(=O)n1-c1ccccc1 | 2510
CC[C@H](Nc1ncnc(N)c1-c1ncn(C)n1)c1nc2cccc(Cl)c2c(=O)n1C1CC1 | 239

Proceed to the following item.
Please look up its IC50: CC[C@H](Nc1ncnc(N)c1-c1nnc(C)o1)c1nc2cccc(Cl)c2c(=O)n1-c1cccc(F)c1
12
